- Test system: Pseudomonas aeruginosa A-5007
- Assay protocol: Minimal Inhibitory Concentrations against common test organisms
- Format: cell-based
- Experimental setup: A5007
Measured attribute: MIC

Below are worked cases with known answers.
molecule="CCC(=O)OC1C(OC2C(C)=CC(C)=CCC(C(C)O)OC(=O)C(COC3OC(C)C(OC(=O)c4c(O)c(Cl)c(O)c(Cl)c4CC)C(O)C3OC)=CC=CCC(O)C(C)=CC2CC)OC(C)(C)C(O)C1O (centres unmarked)" measurement="> 100 µg/mL"
molecule="CCc1c(Cl)c(O)c(Cl)c(O)c1C(=O)OC1C(C)OC(OCC2=CC=CCC(O)C(C)=CC(CC)C(OC3OC(C)(C)C(OC(=O)C(C)C)C(O)C3O)C(C)=CC(C)=CCC(C(C)O)OC2=O)C(OC)C1O (centres unmarked)" measurement="> 100 µg/mL"
molecule="CCc1c(Cl)c(O)c(Cl)c(O)c1C(=O)OC1C(C)OC(OCC2=CC=CCC(O)C(C)=CC(CC)C(OC3OC(C)(C)C(O)C(O)C3OC(=O)C(C)C)C(C)=CC(C)=CCC(C(C)O)OC2=O)C(OC)C1O (centres unmarked)" measurement="> 100 µg/mL"
molecule="CCc1c(Cl)c(O)c(Cl)c(O)c1C(=O)OC1C(C)OC(OCC2=CC=CCC(O)C(C)=CC(CC)C(OC3OC(C)(C)C(O)C(OC(=O)C(C)C)C3O)C(C)=CC(C)=CCC(C(C)O)OC2=O)C(OC)C1O (centres unmarked)" measurement="> 100 µg/mL"

Read the next record carefully.
CCc1c(Cl)c(O)c(Cl)c(O)c1C(=O)OC1C(O)C(C)OC(OCC2=CC=CCC(O)C(C)=CC(CC)C(OC3OC(C)(C)C(O)C(O)C3OC(=O)C(C)C)C(C)=CC(C)=CCC(C(C)O)OC2=O)C1OC (centres unmarked) on Pseudomonas aeruginosa A-5007 gives MIC = > 25 µg/mL
